settings: in isopropanol, 308.2 K
observationType: solubility (mole fraction)
Give the figure by itself; no unit, no explanation.

Q. // query solubility (mole fraction) value for entry NCC(CC(=O)O)c1ccc(Cl)cc1 (stereo unspecified)
A. 8.09e-05

----------
conditions: in ethanol, 313.2 K
observationType: solubility (mole fraction)
Hey, just send me the number, nothing else.

Q. Item NCC(CC(=O)O)c1ccc(Cl)cc1 (stereo unspecified) has what recorded solubility (mole fraction)?
A. 6.09e-05

----------
details: in isopropanol, 313.2 K
observationType: solubility (mole fraction)
// response body must contain only the number

Q. Data request, read-out solubility (mole fraction), for NCC(CC(=O)O)c1ccc(Cl)cc1 (stereo unspecified)
A. 8.85e-05
